What Potential V, Li/Li^+ was measured for each of the following?
- Experimental Protocol: Shuttle molecules tested in LiFePO4/graphite and LiFePO4/Li4/3Ti5/3O4 coin cells, C/10, 100% overcharge
- Reported Conditions: 0.1M shuttle, 0.7 M LiBOB PC:DMC:EC:DEC 1:2:1:2
- Description: A variety of shuttle molecules (obtained from Aldrich Chemical Co. and used without further purification) were tested in LiFePO4/graphite and LiFePO4/Li4/3Ti5/3O4 coin cells. The LiFePO4 was obtained from Phostech Lithium as in Example 1 and the Li4/3Ti5/3O4 was obtained from NEI Corp. (Piscataway, N.J., USA). The graphite used was mesocarbon microbeads (MCMB) heat treated to near 2650° C. […]
Numbers only, in V.

{"Compound": "COc1c(C(C)(C)C)cc([N+](=O)[O-])c(C)c1[N+](=O)[O-]", "Unit": "V", "Observed Measurement": 4.9}
{"Compound": "COc1c(C(C)(C)C)cc(C(C)(C)C)cc1C(C)(C)C", "Unit": "V", "Observed Measurement": 4.4}
{"Compound": "COc1c(N)cc(C(C)(C)C)cc1N [Comp. Ex. 5, 4-t-butyl-2,6-diaminoanisole, reference compound]", "Unit": "V", "Observed Measurement": 4.4}

## Input Give its Potential V, Li/Li^+ value. Item: "COc1c([N+](=O)[O-])cc(C(C)(C)C)cc1[N+](=O)[O-]"
## Output 4.9
